System: HEK293 cells
experiment: MTT cell viability, HEK293
Assay type: cell-based, human
protocol-conditions: 48 h, plateau of biphasic curve fit, mean ± SEM, n = 5
recorded-metric: % resistant (%)
Dear colleague, please return just the value in %, with no unit written.

Use the examples below as a reference point.
In [3]: df
Out[3]:
                              smiles_string  study_target  recorded_metric  result_number
0  Nc1nc(Cl)nc2c1ncn2[C@@H]1O[C@H](CO)[C@@H](O)[C@@H]1F  HEK293 cells      % resistant             21
1  Nc1ccn([C@@H]2O[C@H](CO)[C@@H](O)C2(F)F)c(=O)n1  HEK293 cells      % resistant             33

Next compound, % resistant to be filled in.
## Input Would you kindly share the measured % resistant for Nc1ccn([C@@H]2O[C@H](CO)[C@@H](O)[C@@H]2O)c(=O)n1 ?
## Output 51

###

Test system: ENT2KO cells
experiment: MTT cell viability, ENT2KO
Format: cell-based, human
protocol-conditions: 48 h, plateau of biphasic curve fit
Marks after values point to notes of the source that are not given here.
recorded-metric: % resistant

Use the examples below as a reference point.
>>> df
                              smiles_string  recorded_metric       result
0  Nc1nc(Cl)nc2c1ncn2[C@@H]1O[C@H](CO)[C@@H](O)[C@@H]1F      % resistant  70 ± 3 ^b %
1  Nc1ccn([C@@H]2O[C@H](CO)[C@@H](O)[C@@H]2O)c(=O)n1      % resistant   Monophasic
2                   O=c1[nH]cc(F)c(=O)[nH]1      % resistant   Monophasic
3                  Nc1nc2nc[nH]c2c(=S)[nH]1      % resistant      25 ± 5%

## Input Would you kindly share the measured % resistant for Nc1nc(Cl)nc2c1ncn2[C@H]1C[C@H](O)[C@@H](CO)O1 ?
## Output Monophasic

## Input Would you kindly share the measured % resistant for Sc1ncnc2nc[nH]c12 ?
## Output 41 ± 3%

## Input Would you kindly share the measured % resistant for Nc1ccn([C@@H]2O[C@H](CO)[C@@H](O)C2(F)F)c(=O)n1 ?
## Output 76 ± 3 ^b %

Recorded values, source paper PMC12799549.
